Test system: P-glycoprotein (human MDR1)
Test: MDCKII-MDR1 permeability and P-glycoprotein substrate assay
Assay type: in vitro ADME, canine cells over-expressing human MDR1
Settings: dog, MDCK-MDR1, pH 7.4; 10 µM, 60 min, without P-gp inhibitor; read-out: MDCKII-MDR1 Papp(A2B)

compound: Cl.c1ccc2sc(-c3nc4ccc(C5=NCCCN5)cc4s3)cc2c1 [Compound 5e]
Papp A→B at 60 min, 10 µM: < 0.1 ×10⁻⁶ cm/s
//
compound: Cl.c1ccc2nc(-c3nc4ccc(C5=NCCCN5)cc4s3)ccc2c1 [Compound 5d]
Papp A→B at 60 min, 10 µM: < 0.1 ×10⁻⁶ cm/s
//
compound: c1ccc2cc(-c3nc4cc(C5=NCCCN5)ccc4[nH]3)ccc2c1 [Compound 6f]
Papp A→B at 60 min, 10 µM: 0.78 ×10⁻⁶ cm/s
//
compound: N#Cc1ccc(-c2nc3cc(C4=NCCCN4)ccc3[nH]2)cc1 [Compound 6b]
Papp A→B at 60 min, 10 µM: 0.92 ×10⁻⁶ cm/s
//
compound: FC(F)(F)c1ccc(-c2nc3cc(C4=NCCCN4)ccc3[nH]2)cc1 [Compound 6c]
Papp A→B at 60 min, 10 µM: 0.69 ×10⁻⁶ cm/s
//
compound: Cl.N#Cc1ccc(-c2nc3ccc(C4=NCCCN4)cc3s2)cc1 [Compound 5b]
Papp A→B at 60 min, 10 µM: 0.59 ×10⁻⁶ cm/s
//
compound: c1ccc(-c2nc3cc(C4=NCCCN4)ccc3[nH]2)cc1 [Compound 6a]
Papp A→B at 60 min, 10 µM: 0.4 ×10⁻⁶ cm/s
//
compound: c1ccc2c(c1)cc(-c1nc3cc(C4=NCCCN4)ccc3[nH]1)c1ccccc12 [Compound 6g]
Papp A→B at 60 min, 10 µM: 0.02 ×10⁻⁶ cm/s
//
compound: c1ccc2sc(-c3nc4cc(C5=NCCCN5)ccc4[nH]3)cc2c1 [Compound 6d]
Papp A→B at 60 min, 10 µM: 0.11 ×10⁻⁶ cm/s

* * *

Assay: Stability in plasma
Assay type: in vitro ADME
Settings: human plasma, 37 °C

compound structure string: Cl.c1ccc2sc(-c3nc4ccc(C5=NCCCN5)cc4s3)nc2c1
remaining at 4 h, 5 µM, %: 86

compound structure string: Cl.c1ccc2cc(-c3nc4ccc(C5=NCCCN5)cc4s3)ccc2c1
remaining at 4 h, 5 µM, %: 74

compound structure string: Cl.FC(F)(F)c1ccc(-c2nc3ccc(C4=NCCCN4)cc3s2)cc1
remaining at 4 h, 5 µM, %: 83

compound structure string: c1ccc2c(c1)cc(-c1nc3cc(C4=NCCCN4)ccc3[nH]1)c1ccccc12
remaining at 4 h, 5 µM, %: 85

compound structure string: Cl.c1ccc2sc(-c3nc4ccc(C5=NCCCN5)cc4s3)cc2c1
remaining at 4 h, 5 µM, %: 82

* * *

System: P-glycoprotein (human MDR1)
Test: MDCKII-MDR1 permeability and P-glycoprotein substrate assay
Assay type: in vitro ADME, canine cells over-expressing human MDR1
Settings: dog, MDCK-MDR1, pH 7.4; 10 µM, 60 min, without P-gp inhibitor; read-out: MDCKII-MDR1 Papp(A2B)

compound structure string: Cl.c1ccc2sc(-c3nc4ccc(C5=NCCCN5)cc4s3)nc2c1
tested target: P-glycoprotein (human MDR1)
Papp A→B at 60 min, 10 µM: < 0.1 ×10⁻⁶ cm/s
--
compound structure string: c1ccc2c(-c3nc4ccc(C5=NCCCN5)cc4[nH]3)c[nH]c2c1
tested target: P-glycoprotein (human MDR1)
Papp A→B at 60 min, 10 µM: 0.57 ×10⁻⁶ cm/s
--
compound structure string: Cl.FC(F)(F)c1ccc(-c2nc3ccc(C4=NCCCN4)cc3s2)cc1
tested target: P-glycoprotein (human MDR1)
Papp A→B at 60 min, 10 µM: < 0.1 ×10⁻⁶ cm/s
--
compound structure string: Cl.c1ccc2cc(-c3nc4ccc(C5=NCCCN5)cc4s3)ccc2c1
tested target: P-glycoprotein (human MDR1)
Papp A→B at 60 min, 10 µM: < 0.1 ×10⁻⁶ cm/s

* * *

Listing: fraction unbound at 4 h, 5 µM of selected compounds
Experiment: Plasma protein binding, equilibrium dialysis
Format: in vitro ADME
Conditions: human plasma, 5 µM, equilibrium dialysis 4 h, 37 °C; read-out: PPB % bound, Human (converted)

compound: c1ccc2c(c1)cc(-c1nc3cc(C4=NCCCN4)ccc3[nH]1)c1ccccc12 [Compound 6g]
fraction unbound at 4 h, 5 µM: 0.015

compound: N#Cc1ccc(-c2nc3cc(C4=NCCCN4)ccc3[nH]2)cc1 [Compound 6b]
fraction unbound at 4 h, 5 µM: 0.457

compound: Cl.c1ccc2nc(-c3nc4ccc(C5=NCCCN5)cc4s3)ccc2c1 [Compound 5d]
fraction unbound at 4 h, 5 µM: 0.053

compound: c1ccc2sc(-c3nc4cc(C5=NCCCN5)ccc4[nH]3)cc2c1 [Compound 6d]
fraction unbound at 4 h, 5 µM: 0.074

compound: c1ccc2cc(-c3nc4cc(C5=NCCCN5)ccc4[nH]3)ccc2c1 [Compound 6f]
fraction unbound at 4 h, 5 µM: 0.19

compound: Cl.c1ccc2sc(-c3nc4ccc(C5=NCCCN5)cc4s3)nc2c1 [Compound 5g]
fraction unbound at 4 h, 5 µM: 0.049

compound: c1ccc2c(-c3nc4ccc(C5=NCCCN5)cc4[nH]3)c[nH]c2c1 [Compound 6e]
fraction unbound at 4 h, 5 µM: 0.349

compound: Cl.c1ccc2cc(-c3nc4ccc(C5=NCCCN5)cc4s3)ccc2c1 [Compound 5h]
fraction unbound at 4 h, 5 µM: 0.024

compound: Cl.c1ccc2sc(-c3nc4ccc(C5=NCCCN5)cc4s3)cc2c1 [Compound 5e]
fraction unbound at 4 h, 5 µM: 0.021

compound: c1ccc(-c2nc3cc(C4=NCCCN4)ccc3[nH]2)cc1 [Compound 6a]
fraction unbound at 4 h, 5 µM: 0.403

compound: FC(F)(F)c1ccc(-c2nc3cc(C4=NCCCN4)ccc3[nH]2)cc1 [Compound 6c]
fraction unbound at 4 h, 5 µM: 0.144

compound: Cl.FC(F)(F)c1ccc(-c2nc3ccc(C4=NCCCN4)cc3s2)cc1 [Compound 5c]
fraction unbound at 4 h, 5 µM: 0.03

compound: Cl.N#Cc1ccc(-c2nc3ccc(C4=NCCCN4)cc3s2)cc1 [Compound 5b]
fraction unbound at 4 h, 5 µM: 0.334

* * *

Test system: P-glycoprotein (human MDR1)
Assay: MDCKII-MDR1 permeability and P-glycoprotein substrate assay
Type: in vitro ADME, canine cells over-expressing human MDR1
Settings: dog, MDCK-MDR1, pH 7.4, without P-gp inhibitor
Listing: efflux ratio at 60 min, 10 µM of selected compounds

compound structure string: c1ccc2sc(-c3nc4cc(C5=NCCCN5)ccc4[nH]3)cc2c1
tested target: P-glycoprotein (human MDR1)
efflux ratio at 60 min, 10 µM: 7.75
//
compound structure string: Cl.c1ccc2sc(-c3nc4ccc(C5=NCCCN5)cc4s3)cc2c1
tested target: P-glycoprotein (human MDR1)
efflux ratio at 60 min, 10 µM: > 78
//
compound structure string: Cl.N#Cc1ccc(-c2nc3ccc(C4=NCCCN4)cc3s2)cc1
tested target: P-glycoprotein (human MDR1)
efflux ratio at 60 min, 10 µM: 35.4
//
compound structure string: Cl.c1ccc2sc(-c3nc4ccc(C5=NCCCN5)cc4s3)nc2c1
tested target: P-glycoprotein (human MDR1)
efflux ratio at 60 min, 10 µM: > 17
//
compound structure string: Cl.c1ccc2cc(-c3nc4ccc(C5=NCCCN5)cc4s3)ccc2c1
tested target: P-glycoprotein (human MDR1)
efflux ratio at 60 min, 10 µM: > 77
//
compound structure string: c1ccc2c(c1)cc(-c1nc3cc(C4=NCCCN4)ccc3[nH]1)c1ccccc12
tested target: P-glycoprotein (human MDR1)
efflux ratio at 60 min, 10 µM: 6.6
//
compound structure string: c1ccc(-c2nc3cc(C4=NCCCN4)ccc3[nH]2)cc1
tested target: P-glycoprotein (human MDR1)
efflux ratio at 60 min, 10 µM: 3.7
//
compound structure string: FC(F)(F)c1ccc(-c2nc3cc(C4=NCCCN4)ccc3[nH]2)cc1
tested target: P-glycoprotein (human MDR1)
efflux ratio at 60 min, 10 µM: 2.82
//
compound structure string: Cl.c1ccc2nc(-c3nc4ccc(C5=NCCCN5)cc4s3)ccc2c1
tested target: P-glycoprotein (human MDR1)
efflux ratio at 60 min, 10 µM: > 158
//
compound structure string: c1ccc2cc(-c3nc4cc(C5=NCCCN5)ccc4[nH]3)ccc2c1
tested target: P-glycoprotein (human MDR1)
efflux ratio at 60 min, 10 µM: 3.23
//
compound structure string: N#Cc1ccc(-c2nc3cc(C4=NCCCN4)ccc3[nH]2)cc1
tested target: P-glycoprotein (human MDR1)
efflux ratio at 60 min, 10 µM: < 2
//
compound structure string: Cl.FC(F)(F)c1ccc(-c2nc3ccc(C4=NCCCN4)cc3s2)cc1
tested target: P-glycoprotein (human MDR1)
efflux ratio at 60 min, 10 µM: > 200
//
compound structure string: c1ccc2c(-c3nc4ccc(C5=NCCCN5)cc4[nH]3)c[nH]c2c1
tested target: P-glycoprotein (human MDR1)
efflux ratio at 60 min, 10 µM: 3.89
